Test system: CCRF-CEM
assay.overview: Inhibitory activity against CEM cells
Type: functional, cell-based
run.parameters: Homo sapiens
Quick reference: IC50 of the listed items.

Worked examples, 2 molecules total:
CC(C)(C)NC(=O)c1ccccc1C[C@@H](O)[C@H](CSc1ccc2ccccc2c1)NC(=O)c1cccc2c1CCNC2
> 50 µg/mL
Cc1c(C(=O)N[C@@H](CSc2ccc3ccccc3c2)[C@H](O)Cc2ccccc2C(=O)NC(C)(C)C)cccc1[N+](=O)[O-]
> 50 µg/mL

The record that follows has no IC50 shown yet.
What the record says about CC(C)(C)NC(=O)c1ccccc1C[C@@H](O)[C@H](CSc1ccc2ccccc2c1)NC(=O)c1cccc2c1CCN2 : IC50 is > 50 µg/mL
